Give measured inhibition for each item. Keep answers brief.
Assayed Target: UniProt:P14920
Sequence (P14920 whole entry, looked up): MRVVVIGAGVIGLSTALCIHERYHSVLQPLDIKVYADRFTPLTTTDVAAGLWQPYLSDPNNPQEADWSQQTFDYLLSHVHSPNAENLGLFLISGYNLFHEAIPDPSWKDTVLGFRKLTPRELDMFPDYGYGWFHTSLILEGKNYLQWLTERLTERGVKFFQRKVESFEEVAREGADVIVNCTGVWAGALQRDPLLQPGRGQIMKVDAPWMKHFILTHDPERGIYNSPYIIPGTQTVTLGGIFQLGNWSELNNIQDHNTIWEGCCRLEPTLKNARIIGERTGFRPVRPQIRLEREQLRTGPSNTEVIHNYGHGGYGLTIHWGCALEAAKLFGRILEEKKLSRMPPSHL
Method: Inhibition of human DAAO at 20 uM using D-kynurenine as substrate relative to control
Field: numeric (%). Do not append units.

Lab note: measured inhibition of CN(C(=O)c1cc(Br)c(Br)[nH]1)c1c[nH]c(C(=O)NCC(=O)O)c1 was 0

Lab note: measured inhibition of CN(CC(=O)O)C(=O)c1cc(N(C)C(=O)c2cc(Br)c(Br)[nH]2)c[nH]1 was 0

Lab note: measured inhibition of Cn1cc(NC(=O)c2cc(Br)c(Br)[nH]2)cc1C(=O)NCC(=O)O was 32

Lab note: measured inhibition of O=C(O)CNC(=O)c1cc([N+](=O)[O-])c[nH]1 was 35

Lab note: measured inhibition of CN(CC(=O)O)C(=O)c1cc(NC(=O)c2cc(Br)c(Br)[nH]2)c[nH]1 was 100

Lab note: measured inhibition of Cc1[nH]c(C(=O)Nc2c[nH]c(C(=O)NCC(=O)O)c2)c(Cl)c1Cl was 100

Lab note: measured inhibition of O=C(O)CNC(=O)c1cc(NC(=O)c2cc(Br)c(Br)[nH]2)c[nH]1 was 100

Lab note: measured inhibition of O=C(O)CNC(=O)c1cc(NC(=O)c2cccnc2)c[nH]1 was 45

Lab note: measured inhibition of O=C(O)CNC(=O)c1cc(NC(=O)c2cc3ccccc3[nH]2)c[nH]1 was 8

Lab note: measured inhibition of O=C(O)CNC(=O)c1cc(NC(=O)c2cc(Br)c[nH]2)c[nH]1 was 100
